# Test system: HeLa cells
# method description: Cytosolic entry efficiency of NF-labelled peptides by flow cytometry
# Assay type: cell-based
# experimental parameters: Table 4, NF-labelled peptide, 1% FBS, relative to CPP12 (100%)
[ ]: non-standard residue; d: D form. The star is where a group is joined. Decanoyl = CCCCCCCCCC(=O)*; Dap = NC[C@H](N)C(=O)O
// values below are reported Cellular Entry Efficiency In 1% FBS
Could you give the number and then its unit, please?

stdin: Please give the measured Cellular Entry Efficiency In 1% FBS for this substance: cyclo(Asp^DecyRRRRQ) (cyclo(DRRRRQ); not fully specified (residue 1); printed as cyclo(Asp^DecyRRRRQ)) [CPP1-20]
stdout: 94 ± 41%

stdin: Bench note: what Cellular Entry Efficiency In 1% FBS did cyclo(Lys^DecaRRRRQ) (cyclo(K(Decanoyl)RRRRQ); SMILES CCCCCCCCCC(=O)NCCCC[C@@H]1NC(=O)[C@H](CCC(N)=O)NC(=O)[C@H](CCCNC(=N)N)NC(=O)[C@H](CCCNC(=N)N)NC(=O)[C@H](CCCNC(=N)N)NC(=O)[C@H](CCCNC(=N)N)NC1=O) [CPP1-15] show?
stdout: 44 ± 11%

stdin: Request the reported Cellular Entry Efficiency In 1% FBS associated with cyclo(Dap^DecaRRRRRQ) (cyclo([Dap](Decanoyl)RRRRRQ); SMILES CCCCCCCCCC(=O)NC[C@@H]1NC(=O)[C@H](CCC(N)=O)NC(=O)[C@H](CCCNC(=N)N)NC(=O)[C@H](CCCNC(=N)N)NC(=O)[C@H](CCCNC(=N)N)NC(=O)[C@H](CCCNC(=N)N)NC(=O)[C@H](CCCNC(=N)N)NC1=O) [CPP1-14]
stdout: 21%

stdin: Which Cellular Entry Efficiency In 1% FBS reading was recorded for the substance cyclo(Dap^DecaARRRQ) (cyclo([Dap](Decanoyl)ARRRQ); SMILES CCCCCCCCCC(=O)NC[C@@H]1NC(=O)[C@H](CCC(N)=O)NC(=O)[C@H](CCCNC(=N)N)NC(=O)[C@H](CCCNC(=N)N)NC(=O)[C@H](CCCNC(=N)N)NC(=O)[C@H](C)NC1=O) [CPP1-12] ?
stdout: 34%

// provenance: patent US11987647B2
